Please go through the items and note down their viability at 28.5 h, 10 µM.
test: in vitro; conditions: human, hela cells, % viability
Give bare numbers, in %.

Some entries whose results are on file:
• CN1CCN(C(=O)c2[nH]c3ccccc3c2NS(=O)(=O)Cc2ccccc2)CC1 = 93.9
• Nc1cc2cccnc2c(-c2ccsc2)n1 = 89.6
• CC(=O)c1nnn(-c2cc(Cl)ccc2Cl)c1C = 104
• COc1ccc(C(=O)/C=C/c2ccc(N3N=C(c4ccccc4)CC3c3ccccc3)cc2)cc1 (centres unmarked) = 91.7
• Cc1noc(C)c1CC(=O)N1CCC2(C/C=C/C[C@H]3COCC[C@@H]3NC(=O)CNC2=O)CC1 = 92.3
• N#Cc1cccc(CN2CCCC3(CCN(C(=O)c4cc(F)c(F)cc4F)C3)C2)c1 (centres unmarked) = 100

# map each compound to its viability at 28.5 h, 10 µM
1. Cn1cc(CC(=O)NCc2ccccc2)c2ccccc21
2. O=C(c1ccc2occc2c1)N1CCCC2(CCN(C(=O)c3cc(F)c(F)cc3F)C2)C1 (centres unmarked)

A)
1. 84.1
2. 90.1

# map each compound to its viability at 28.5 h, 10 µM
1. CN1CCN(c2ccc(-c3cnc4[nH]c(=O)n(C5CC5)c4n3)cc2)CC1
2. O=C(COc1ccc2ccccc2c1)NCCN1CCOCC1
3. Cn1cnnc1SC1c2cccc3cccc(c23)C1NS(=O)(=O)c1ccc(Cl)cc1 (centres unmarked)
4. CC(=O)NCC1OCCc2ccccc21 (centres unmarked)
5. CC1CCN(S(=O)(=O)N2CCNCC2)CC1 [CBK269836C]

A)
1. 89.7
2. 107
3. 98.2
4. 98.4
5. 91.5

# map each compound to its viability at 28.5 h, 10 µM
1. O=C(CN1CCCC1=O)N1CCN(C(=O)c2ccc(Br)o2)CC1
2. CC(C)[C@H](CO)Nc1nccnc1-c1ccccc1CO
3. OCC1(CNc2ncc(F)c(N3CCCC3)n2)CCCC1

A)
90.8
98.2
103

# map each compound to its viability at 28.5 h, 10 µM
1. COc1ccccc1NC(=O)N(CC(C)C)CC(C)C
2. O=C(CCn1cnc2ccccc21)NNC(=O)Nc1cccc(C(F)(F)F)c1
3. CNc1ncnc2c1ncn2[C@@H]1O[C@H](CO)[C@@H](O)[C@H]1O
4. CNS(=O)(=O)c1ccc2c3c(cccc13)C(=O)N2

A)
[102, 93.9, 101, 89.7]

----------
test: in vitro; design: Viability of infected HeLa host cells, resazurin conversion, bulk resorufin fluorescence relative to DMSO; conditions: human, hela cells; bulk resorufin, mean of 2
Please go through the items and note down their viability at 28.5 h, 10 µM.
Numbers only, in %.

Some entries whose results are on file:
- CC(=O)NC[C@H]1CN(c2ccc3c(c2)CCN(C(=O)Oc2ccccc2)CC3)C(=O)O1 [CBK018498]: 97.3
- CCc1nnc(NS(=O)(=O)c2ccc(NC(=O)COc3ccc(Cl)cc3Cl)cc2)s1 [CBK200050]: 98.4
- Nc1cccc2c(OCCO)cccc12 [CBK001976C]: 85.7
- Cc1ccc2[nH]c3c(c2c1)CCOC31CCN(Cc2ccccc2-c2ccccc2)CC1 [CBK039915]: 100
- COc1ccc([C@@]23CC=C(N(Cc4ccccc4)C(=O)Nc4ccc(F)c(F)c4)C[C@@H]2N(C)CC3)cc1OC [CBK050179]: 112
- O=C(CSCc1c(F)cccc1Cl)Nc1ccc(S(=O)(=O)N2CCCCC2)cc1 [CBK268034]: 101
- CCNC(=O)N1CC2(CCN(Cc3nc4ccccc4[nH]3)CC2)c2ccccc21 [CBK126693]: 96.7
- OCC1(CNc2ncc(F)c(N3CCCC3)n2)CCOCC1 [CBK306647]: 95.5

Moving on to another compound below.
Q) Would you mind telling me what viability at 28.5 h, 10 µM value was observed for FC(F)(F)c1ccc(N2CCNCC2)nc1OCc1ccc2c(c1)OCCO2 [CBK003994A] ?
A) 96.6

src = paper PMC12040169
